# experimentNotes: Cytotoxicity, cell viability in SHSY-5Y
# Format: cell-based
# experimentalContext: human, SHSY-5Y cells; 30 µM compound
readoutLabel: viability at 30 µM

[[record]]
structurenotation = "O=C(c1ccc2ccccc2c1)N1CCc2nc[nH]c2C1"
experimentalvalue = "127%"

[[record]]
structurenotation = "COc1cc(Cl)cc(C(=O)N2CCc3[nH]cnc3C2)c1"
experimentalvalue = "128%"

[[record]]
structurenotation = "O=C(c1cc(Cl)cc(Cl)c1)N1CCc2nc[nH]c2C1"
experimentalvalue = "119%"


* * *

Ki reference
# systemName: TfQC
# experimentNotes: Inhibition of Tannerella forsythia glutaminyl cyclase, fluorogenic substrate H-Gln-AMC
# experimentalContext: read-out: Ki TfQC; recombinant QC, competitive inhibition fit
readoutLabel: Ki (nM)

[[record]]
structurenotation = "O=C(c1ccc2ccccc2c1)N1CCc2nc[nH]c2C1"
experimentalvalue = 185

[[record]]
structurenotation = "COc1cc(Cl)cc(C(=O)N2CCc3[nH]cnc3C2)c1"
experimentalvalue = 221

[[record]]
structurenotation = "O=C(c1cc(Cl)cc(Cl)c1)N1CCc2nc[nH]c2C1"
experimentalvalue = 176


* * *

# experimentNotes: Cytotoxicity, cell viability in Hep-G2
# Format: cell-based
# experimentalContext: human, Hep-G2 cells; 30 µM compound
Known viability at 30 µM of a selection of molecules
readoutLabel: viability at 30 µM (%)

[[record]]
structurenotation = "O=C(c1cc(Cl)cc(Cl)c1)N1CCc2nc[nH]c2C1"
readoutlabel = "viability at 30 µM"
experimentalvalue = 92

[[record]]
structurenotation = "O=C(c1ccc2ccccc2c1)N1CCc2nc[nH]c2C1"
readoutlabel = "viability at 30 µM"
experimentalvalue = 94

[[record]]
structurenotation = "COc1cc(Cl)cc(C(=O)N2CCc3[nH]cnc3C2)c1"
readoutlabel = "viability at 30 µM"
experimentalvalue = 96

